assayComment: qHTS for H2AX Agonists against the NCATS CANVASS Library (AID 1347378);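 also: phospho-H2AX S139 level in CHO-K1 lysates by TR-FRET emission ratio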
assayContext: CHO-K1 H2AX phosphorylation, HTRF TR-FRET, 3 h; series mostly up to 76.9 µM
Inconclusive results are not listed. The source made the active and inactive calls. Calls follow the shape of the dose curve; as a rule, active = well fitted activation curve with a large enough effect; inconclusive = small, poorly fitted or top-dose-only effect; inactive = flat fitted curve, though single readings scatter.
Respond only with the outcome that fits, drawn from active, inactive

O=Cc1ccc2n1C[C@@]1(C[C@H](O)[C@H](O)CO1)OC2: inactive
C1=C2CCCN[C@@H]2[C@@H]2CCN3CCCC[C@@H]3[C@H](C1)C2: inactive
CC(C)=CCC[C@@H](C)[C@@H]1CC[C@@]2(C)C[C@H]3C(C)=CC(=O)[C@@H]3/C(C=O)=C\C[C@H]12: inactive
CN1C(=O)[C@]23SS[C@@]1(C)C(=O)N2[C@H]1Nc2ccccc2[C@]1(c1c[nH]c2ccccc12)[C@@H]3O: active

## Input Call for entry CNc1ccc(Cl)cc1C(=O)OC[C@]1(C)[C@H]2CC[C@]3(C)[C@@H](C[C@@H](OC)[C@H](C)[C@H]3C3=C(O)C(=O)OC3O)[C@]2(C)CC[C@H]1O (some centres not stated) :
## Output inactive

## Input Call for entry O=C(O)CC1OC(=O)c2c(O)cccc21 (configuration not stated) :
## Output inactive

## Input Call for entry C[C@H]1C[C@@H]([C@@H]2CC[C@]34O[C@H](CC[C@@]35C[C@H](C)C(=O)O5)CN24)OC1=O :
## Output inactive
